Attribution: ChEMBL document CHEMBL3425436

concentration overview
test system: Mus musculus; assay: Total plasma concentration in CD1 mouse assessed as (2R,3R,4R,5R,6R)-5-acetamido-4-amino-2,3-difluoro-6-((1R,2R)-1,2,3-trihydroxypropyl)tetrahydro-2H-pyran-2-carboxylic acid at 30 mg/kg, po measured at 60 mins by reversed-phase UPLC/MS analysis; format: ADME, organism-based; parameters: dose 30 mg/kg, route oral; conditions: in vivo, 1 h

Observe how each entry below is paired with its result.
INSERT INTO assay_data (molecular_string, measured_attribute, observed_measurement) VALUES
  ('CC(=O)N[C@@H]1[C@@H](N)[C@@H](F)[C@](F)(C(=O)OCC(=O)N(C)C)O[C@H]1[C@H](O)[C@H](O)CO', 'concentration', '4.39 µM'),
  ('COC(=O)[C@]1(F)O[C@@H]([C@H](O)[C@H](O)CO)[C@H](NC(C)=O)[C@@H](N)[C@H]1F', 'concentration', '5.34 µM'),
  ('COC(=O)[C@]1(F)O[C@@H]([C@H](O)[C@H](O)COC(=O)OCC(C)(C)C)[C@H](NC(C)=O)[C@@H](N)[C@H]1F', 'concentration', '6.01 µM');

Now consider a different compound.
Exercise: # input compound: `CC(=O)N[C@@H]1[C@@H](N)[C@@H](F)[C@](F)(C(=O)OC2CCCC2)O[C@H]1[C@H](O)[C@H](O)CO` ; wanted: its concentration
Solution: 2.88 µM
